Target: (CUG)10 RNA (SEQ ID NO: 3)
Experiment: SPR binding to immobilized biotinylated RNA
Conditions: Table 7, SPR, (CUG)10; read-out: KD
Readout: Kd (nM)
Answer in nM, number only, no unit symbol.

Examples with answers:
{"Molecule": "CCc1nc2cc3ccccc3cc2cc1C(=O)N1CCC[C@H]1C(=O)N(C)[C@@H](C/C=C\\C[C@@H](C(=O)N[C@@H](CCCCN)C(=O)NCCCN)N(C)C(=O)[C@@H]1CCCN1C(=O)c1cc2cc3ccccc3cc2nc1CC)C(=O)N[C@@H](CCCCN)C(=O)NCCCN [21 (Z)]", "Kd (nM)": 102}
{"Molecule": "CCc1nc2cc3ccccc3cc2cc1C(=O)N1CCC[C@H]1C(=O)N[C@@H](C/C=C/C[C@H](NC(=O)[C@@H]1CCCN1C(=O)c1cc2cc3ccccc3cc2nc1CC)C(=O)N(C)[C@@H](CCCCN)C(=O)NCCCN)C(=O)N(C)[C@@H](CCCCN)C(=O)NCCCN [20 (E)]", "Kd (nM)": 83}
{"Molecule": "CCc1nc2cc3ccccc3cc2cc1C(=O)N1CCC[C@H]1C(=O)N[C@@H](C/C=C/C[C@H](NC(=O)[C@@H]1CCCN1C(=O)c1cc2cc3ccccc3cc2nc1CC)C(=O)N[C@@H](CCCCN)C(=O)NCCCN)C(=O)N[C@@H](CCCCN)C(=O)NCCCN [Compound 5]", "Kd (nM)": 88}

Could you please provide reported Kd for CCc1nc2cc3ccccc3cc2cc1C(=O)N1CCC[C@H]1C(=O)N(C)[C@@H](C/C=C/C[C@@H](C(=O)N(C)[C@@H](CCCCN)C(=O)NCCCN)N(C)C(=O)[C@@H]1CCCN1C(=O)c1cc2cc3ccccc3cc2nc1CC)C(=O)N(C)[C@@H](CCCCN)C(=O)NCCCN [22 (E)] ? Thanks!
72

Each recorded value in this set is attributed to patent US20140050778A1.
